meta.source: PubChem BioAssay (NCI)

# System: SK-OV-3 ovarian
# assay text: NCI-60 one-dose screen, 48 h (100 = growth as untreated, 0 = no growth, -100 = all killed)
# run conditions: 10 µM unless noted
This is part of a sample that, as a whole, favours compounds with a hit. Of some 83,000 tested, about 20% had one in any assay.
So I've got a bunch of compounds here, and I need their growth values.
Answers are plain numbers, in %.

compound: CC(=S)NC(=O)C(=O)/C=C1/NC(=O)C(=O)S1
measurement label: growth
val: 122
//
compound: COC(=O)C1=C(C)NC(C)=C(C(=O)OC)C(N2C(=O)CCC2=O)C1 (stereo not given)
measurement label: growth
val: 104
//
compound: COc1ccc(CCN2C(=O)CCSC2=S)cc1
measurement label: growth
val: 102

Hello, I would appreciate it if you could give growth for each entry below.
1. Oc1ccc(-c2nc(-c3ccc4oc5ccc(-c6[nH]c(-c7ccc(O)cc7)nc6-c6ccccc6)cc5c4c3)c(-c3ccccc3)[nH]2)cc1
2. CCC1=C[C@]2(C3CC(=O)N(c4ccccc4)C3=O)CC(C(C)(C)C)C[C@@H]2[C@@H]2C(=O)N(c3ccccc3)C(=O)[C@H]12 (stereo not given in full)

**Result**
1: 87; 2: 88.6
